This collection of values is drawn from patent US5863913A.

Assay: Oral absorption (amount of compound in rat serum by HPLC, area under curve)
Type: in vivo, Sprague-Dawley female rats
Details: single dosage 160 mg/kg in water, 0.5 to 24 hours, average of 3 rats
Returns: string. Value is rule met if measured AUC at 24 h is below 20000 ng·h/mL, and rule not met if it is greater than or equal to it.

CCCCC(=O)N(Cc1ccc(C(=O)OCCCN(C)C)cc1)c1cc(C(=O)N2CCOCC2)ccc1N(C)C [Compound No. 2] ... rule met
CCCCC(=O)N(Cc1ccc(C(=O)O)cc1)c1cc(C(=O)N2CCN(CCC)CC2)ccc1C(C)C [Compound No. 19] ... rule not met
CCCCC(=O)N(Cc1ccc(C(=O)OCCCN(C)C)cc1)c1cc(C(=O)N2CCOCC2)ccc1C(C)C [Compound No. 7] ... rule met
CCCCCCC(=O)N(Cc1ccc(C(=O)O)cc1)c1cc(C(=O)N2CCN(C)CC2)ccc1C(C)C [Compound No. 18] ... rule met
CCCCC(=O)N(Cc1ccc(C(=O)OCCN(CC)CC)cc1)c1cc(C(=O)N2CCOCC2)ccc1C(C)C [Compound No. 8] ... rule not met

Incoming: I'd appreciate it if you could check whether CCCCCCC(=O)N(Cc1ccc(C(=O)O)cc1)c1cc(C(=O)N2CCN(CCC)CC2)ccc1C(C)C [Compound No. 20] has AUC at 24 h smaller than 20000 ng·h/mL.
Outgoing: rule not met

Incoming: Entry CCCCC(=O)N(Cc1ccc(C(=O)OCCN2CCOCC2)cc1)c1cc(C(=O)N2CCOCC2)ccc1C(C)C [Compound No. 9] please
Outgoing: rule not met

Incoming: Please answer likewise for CCCCC(=O)N(Cc1ccc(C(=O)OCCN(C)C)cc1)c1cc(C(=O)N2CCOCC2)ccc1N(C)C [Compound No. 1]
Outgoing: rule met

Incoming: Check CCCCCCC(=O)N(Cc1ccc(C(=O)O)cc1)c1cc(C(=O)N2CCN(C)CC2)ccc1N(C)C [Compound No. 13] too.
Outgoing: rule met

Incoming: Same question for CCCCCCC(=O)N(Cc1ccc(C(=O)O)cc1)c1cc(C(=O)N2CCN(CCC)CC2)ccc1N(C)C [Compound No. 12] please.
Outgoing: rule not met
